B1: Caulobacter ParB omega fusion; a variant is named by its letters at X, in order, B8GW30 (parent)
chain: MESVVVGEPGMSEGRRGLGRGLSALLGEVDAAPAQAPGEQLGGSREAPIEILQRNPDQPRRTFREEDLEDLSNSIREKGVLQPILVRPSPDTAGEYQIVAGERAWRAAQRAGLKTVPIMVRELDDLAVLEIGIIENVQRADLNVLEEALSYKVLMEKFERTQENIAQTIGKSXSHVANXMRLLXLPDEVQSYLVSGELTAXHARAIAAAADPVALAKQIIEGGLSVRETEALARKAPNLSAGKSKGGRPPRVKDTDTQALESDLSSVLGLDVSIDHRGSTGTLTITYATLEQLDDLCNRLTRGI

variants of: B1; test: one-hybrid fitness for binding NBS DNA (the Noc-binding site; scaled: cognate 1, non-cognate 0); higher = stronger binding; details: with NBS DNA site
Whole data set: some 81,000 sequences, median “one-hybrid fitness for binding NBS DNA” near -0.1, cut for the highest 2% near 0.36. The full list was thinned out, with the highest values kept by preference.
Reported one-hybrid fitness for binding NBS DNA values for a set of variants
Readout kind: one-hybrid fitness for binding NBS DNA

• QHVS = 0.221
• QHVR = 0.379
• RSSS = 0.437
• QHKR = 1.03
• NHKR = 0.202
